Biological target: LXRβ (Homo sapiens, UniProt P55055)
Construct: Co-transfection expression plasmids, comprising full-length LXRα (pCMX-h LXRα[…] or LXRβ (pCMX-hLXRβ))
Sequence (P55055 whole entry): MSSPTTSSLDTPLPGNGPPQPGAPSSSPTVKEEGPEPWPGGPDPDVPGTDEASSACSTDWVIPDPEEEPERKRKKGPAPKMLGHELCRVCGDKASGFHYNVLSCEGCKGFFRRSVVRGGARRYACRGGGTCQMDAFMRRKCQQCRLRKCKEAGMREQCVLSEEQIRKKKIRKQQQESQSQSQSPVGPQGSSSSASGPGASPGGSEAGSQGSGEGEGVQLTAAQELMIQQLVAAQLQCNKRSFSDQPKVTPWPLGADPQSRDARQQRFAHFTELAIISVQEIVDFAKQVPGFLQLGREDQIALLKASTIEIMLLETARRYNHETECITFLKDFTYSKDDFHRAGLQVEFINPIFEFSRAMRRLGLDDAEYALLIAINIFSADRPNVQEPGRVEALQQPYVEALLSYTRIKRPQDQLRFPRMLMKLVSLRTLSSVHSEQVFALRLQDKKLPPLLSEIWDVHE
Sequence (P19793 whole entry partner): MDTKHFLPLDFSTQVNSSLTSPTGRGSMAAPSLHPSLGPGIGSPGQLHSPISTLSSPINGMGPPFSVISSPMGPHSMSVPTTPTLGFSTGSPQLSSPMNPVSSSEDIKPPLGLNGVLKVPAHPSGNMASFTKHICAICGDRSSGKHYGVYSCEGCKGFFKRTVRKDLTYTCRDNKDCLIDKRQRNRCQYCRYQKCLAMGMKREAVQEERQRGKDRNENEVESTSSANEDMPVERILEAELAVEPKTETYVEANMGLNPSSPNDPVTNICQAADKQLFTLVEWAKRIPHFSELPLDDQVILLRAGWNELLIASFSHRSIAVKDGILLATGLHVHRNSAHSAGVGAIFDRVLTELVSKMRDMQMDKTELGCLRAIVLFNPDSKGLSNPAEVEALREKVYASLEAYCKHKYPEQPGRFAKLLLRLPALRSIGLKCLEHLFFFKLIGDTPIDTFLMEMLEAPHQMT
Assay: Co-transfection assay (LXRE luciferase reporter), LXRβ
Conditions: CV-1 cells transfected with pCMX-hLXRβ and LXREx1-Tk-Luciferase; 20 hours incubation
Method: To measure the ability of compounds to activate or inhibit the transcriptional activity of LXR in a cell based assay, the co-transfection assay was used. It has been shown that LXR functions as a heterodimer with RXR. […] Treatment of transfected cells with an LXR agonist increases the transcriptional activity of LXR, which is measured by an increase in luciferase activity. […]
Criterion: EC50 strictly under 0.2 µM. Met: Satisfied. Not met: Not satisfied.

Q: Would you kindly verify if EC50 of `Cc1nc(C(F)(F)F)cn1-c1ccc(-c2cccc(S(C)(=O)=O)c2)cc1-n1nncc1-c1cccc(C(F)(F)F)c1` is strictly less than 0.2 µM?
Ans: Not satisfied

Q: Is the reported EC50 for `Cc1ccc(-c2cnnn2-c2cc(-c3cccc(S(C)(=O)=O)c3)ccc2-n2cc(C(F)F)nc2C)cc1` strictly below 0.2 µM?
Ans: Not satisfied

Q: Is the reported EC50 for `Cc1nc(C(F)(F)F)cn1-c1ccc(-c2cccc(S(C)(=O)=O)c2)cc1-n1nncc1-c1ccc(F)c(F)c1` strictly below 0.2 µM?
Ans: Not satisfied

Q: Does the reported EC50 of the following compound sit strictly below 0.2 µM? `Cc1nc(-c2cc(-c3cccc(S(C)(=O)=O)c3)ccc2-n2cc(C(F)(F)F)nc2C)c(-c2ccc(Cl)nc2Cl)o1`
Ans: Not satisfied

Q: Quick check: EC50 of `Cc1nc(-c2cc(-c3ccc(CO)c(S(C)(=O)=O)c3)ccc2-n2cc(C(F)(F)F)nc2C)c(-c2ccc(F)c(F)c2)o1` under 0.2 µM?
Ans: Satisfied

Q: Hello, I'm reviewing records and need to know if EC50 of `Cc1nc(C(F)(F)F)c(Cl)n1-c1ccc(-c2cc(F)c(CO)c(S(C)(=O)=O)c2)cc1-c1cnnn1-c1ccc(Cl)cc1` is below 0.2 µM. Could you check?
Ans: Satisfied

Q: Strictly below 0.2 µM in EC50? `Cc1nc(C(F)(F)F)cn1-c1ccc(-c2cc(F)c(CO)c(S(C)(=O)=O)c2)cc1-c1ccnn1-c1ccc2c(c1)OC(F)(F)O2`
Ans: Satisfied

Q: In the record for Cc1nc(C(F)(F)F)cn1-c1ccc(-c2cccc(S(C)(=O)=O)c2)cc1-c1nc(C(C)CO)oc1-c1ccc(OC(F)(F)F)cc1 (stereo not drawn) , is EC50 less than 0.2 µM?
Ans: Not satisfied

Q: State whether 0.2 µM exceeds EC50 recorded for `Cc1nc(-c2cc(-c3ccc(CCO)c(S(C)(=O)=O)c3)ccc2-n2cc(C(F)(F)F)nc2C)c(-c2ccc(OC(F)(F)F)cc2)o1` .
Ans: Satisfied

Q: Please indicate whether the reported EC50 of `Cc1nc(-c2cc(-c3cccc(S(C)(=O)=O)c3)ccc2-n2cc(C(F)(F)F)nc2C)c(-c2ccc(OC3CCCCC3)nc2)o1` is strictly below 0.2 µM.
Ans: Not satisfied

Q: Does `CCCCOc1ccc(-c2cnnn2-c2cc(-c3cccc(S(C)(=O)=O)c3)ccc2-n2cc(C(F)(F)F)nc2C)cc1` have EC50 strictly under 0.2 µM?
Ans: Not satisfied
